// reported inhibition per item
Biological target: Tyrosine-protein kinase ABL1 (Homo sapiens)
Sequence (P00519 whole entry): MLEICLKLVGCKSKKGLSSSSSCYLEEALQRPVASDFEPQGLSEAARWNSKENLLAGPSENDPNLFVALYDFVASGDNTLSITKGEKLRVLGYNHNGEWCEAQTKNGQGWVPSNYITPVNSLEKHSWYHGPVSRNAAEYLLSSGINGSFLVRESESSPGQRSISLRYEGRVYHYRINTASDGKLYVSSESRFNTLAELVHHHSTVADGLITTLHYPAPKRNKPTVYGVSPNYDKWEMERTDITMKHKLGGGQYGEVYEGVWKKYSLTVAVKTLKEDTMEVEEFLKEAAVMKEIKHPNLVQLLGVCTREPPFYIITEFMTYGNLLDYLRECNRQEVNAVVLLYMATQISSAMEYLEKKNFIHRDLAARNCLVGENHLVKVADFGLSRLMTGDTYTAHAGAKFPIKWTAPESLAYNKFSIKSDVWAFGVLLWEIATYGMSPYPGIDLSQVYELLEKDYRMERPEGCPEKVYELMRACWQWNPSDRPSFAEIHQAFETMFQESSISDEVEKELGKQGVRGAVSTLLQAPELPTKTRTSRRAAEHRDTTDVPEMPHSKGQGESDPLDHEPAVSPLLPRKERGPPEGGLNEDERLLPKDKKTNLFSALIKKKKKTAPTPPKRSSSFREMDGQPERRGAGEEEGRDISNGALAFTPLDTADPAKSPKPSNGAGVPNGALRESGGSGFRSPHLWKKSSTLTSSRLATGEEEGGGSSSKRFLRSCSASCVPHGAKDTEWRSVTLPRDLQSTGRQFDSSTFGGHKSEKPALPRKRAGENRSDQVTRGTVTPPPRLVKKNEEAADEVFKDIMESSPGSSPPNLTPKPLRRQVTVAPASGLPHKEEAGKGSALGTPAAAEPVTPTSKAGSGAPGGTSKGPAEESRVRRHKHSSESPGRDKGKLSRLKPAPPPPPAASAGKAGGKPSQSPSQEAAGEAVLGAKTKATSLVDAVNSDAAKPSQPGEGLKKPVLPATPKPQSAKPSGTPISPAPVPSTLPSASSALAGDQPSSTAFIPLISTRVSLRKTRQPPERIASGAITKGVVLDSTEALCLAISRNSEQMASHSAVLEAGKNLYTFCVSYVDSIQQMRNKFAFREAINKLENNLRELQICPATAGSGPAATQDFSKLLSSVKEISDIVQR
Test: Inhibition of ABL ACT labeling site in human Huh-7 cell lysate at 1 uM by KiNativ Profiling analysis relative to control
Assay type: subcellular

{"Smiles entry": "CCN1CCN(Cc2ccc(NC(=O)c3ccc(C)c(CCc4cnc5[nH]ccc5c4OC)c3)cc2C(F)(F)F)CC1", "Readout unit": "%", "inhibition": 92.8}
{"Smiles entry": "CCN1CCN(c2ccc(NC(=O)c3ccc(C)c(CCc4cnc5[nH]ccc5c4OC)c3)cc2C(F)(F)F)CC1", "Readout unit": "%", "inhibition": 80.7}
{"Smiles entry": "CCN1CCN(Cc2ccc(NC(=O)c3ccc(C)c(Oc4ccnc(NC)n4)c3)cc2C(F)(F)F)CC1", "Readout unit": "%", "inhibition": 74.6}
{"Smiles entry": "CCN1CCN(Cc2ccc(NC(=O)c3cccc(/C=C/c4cnc5[nH]ccc5c4OC)c3)cc2C(F)(F)F)CC1", "Readout unit": "%", "inhibition": 89.6}

====

Molecular target: Tyrosine-protein kinase Fer (Homo sapiens, UniProt P16591)
Sequence (P16591 whole entry): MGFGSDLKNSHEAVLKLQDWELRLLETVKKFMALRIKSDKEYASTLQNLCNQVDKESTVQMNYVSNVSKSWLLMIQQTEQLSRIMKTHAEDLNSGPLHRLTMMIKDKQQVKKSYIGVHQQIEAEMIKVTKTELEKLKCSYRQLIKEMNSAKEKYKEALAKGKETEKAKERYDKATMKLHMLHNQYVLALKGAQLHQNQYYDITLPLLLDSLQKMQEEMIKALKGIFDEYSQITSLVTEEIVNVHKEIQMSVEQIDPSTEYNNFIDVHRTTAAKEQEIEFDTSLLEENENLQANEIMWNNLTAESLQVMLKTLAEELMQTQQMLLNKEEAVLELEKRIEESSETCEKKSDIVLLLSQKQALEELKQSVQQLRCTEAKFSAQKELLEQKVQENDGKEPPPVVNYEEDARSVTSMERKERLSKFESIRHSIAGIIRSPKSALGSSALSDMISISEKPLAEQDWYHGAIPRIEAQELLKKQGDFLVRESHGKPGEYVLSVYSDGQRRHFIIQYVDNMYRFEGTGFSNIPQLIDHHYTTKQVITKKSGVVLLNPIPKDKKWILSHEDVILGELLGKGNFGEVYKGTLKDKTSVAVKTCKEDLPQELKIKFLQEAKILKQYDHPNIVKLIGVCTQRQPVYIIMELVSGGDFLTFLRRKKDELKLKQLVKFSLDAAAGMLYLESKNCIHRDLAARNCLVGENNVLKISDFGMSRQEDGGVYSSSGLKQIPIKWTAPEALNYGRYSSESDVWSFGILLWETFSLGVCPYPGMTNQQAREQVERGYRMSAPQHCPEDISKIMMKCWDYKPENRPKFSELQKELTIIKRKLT
Experiment: Inhibition of FER (unknown origin) ACT labeling site by KiNativ Profiling analysis

{"Smiles entry": "CCN1CCN(Cc2ccc(NC(=O)c3ccc(C)c(Oc4ncnc5cc(OC)c(OC)cc45)c3)cc2C(F)(F)F)CC1", "Readout unit": "nM", "IC50": 36.1}
{"Smiles entry": "CCN1CCN(Cc2ccc(NC(=O)c3ccc(C)c(Oc4cc(NC)ncn4)c3)cc2C(F)(F)F)CC1", "Readout unit": "nM", "IC50": 577}
{"Smiles entry": "CCN1CCN(Cc2ccc(NC(=O)c3ccc(C)c(Oc4ccnc5[nH]ccc45)c3)cc2C(F)(F)F)CC1", "Readout unit": "nM", "IC50": 82.3}
{"Smiles entry": "CCN1CCN(Cc2ccc(NC(=O)c3ccc(C)c(Oc4ncnc5[nH]c(C)cc45)c3)cc2C(F)(F)F)CC1", "Readout unit": "nM", "IC50": 74.8}

====

Molecular target: Tyrosine-protein kinase Lyn (Homo sapiens)
Sequence (P07948 whole entry): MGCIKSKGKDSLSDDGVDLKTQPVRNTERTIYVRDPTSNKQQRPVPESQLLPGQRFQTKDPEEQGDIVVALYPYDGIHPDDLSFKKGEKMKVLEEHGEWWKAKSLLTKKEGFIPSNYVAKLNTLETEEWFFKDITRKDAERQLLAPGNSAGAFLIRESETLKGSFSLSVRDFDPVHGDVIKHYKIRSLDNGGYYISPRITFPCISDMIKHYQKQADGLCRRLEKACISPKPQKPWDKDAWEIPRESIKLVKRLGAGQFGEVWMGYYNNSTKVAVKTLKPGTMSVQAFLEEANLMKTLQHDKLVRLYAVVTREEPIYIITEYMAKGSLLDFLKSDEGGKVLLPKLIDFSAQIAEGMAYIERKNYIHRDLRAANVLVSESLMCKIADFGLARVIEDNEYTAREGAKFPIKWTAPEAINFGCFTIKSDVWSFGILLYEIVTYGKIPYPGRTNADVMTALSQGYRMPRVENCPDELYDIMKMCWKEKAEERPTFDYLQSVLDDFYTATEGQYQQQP
Assay: Inhibition of LYN (unknown origin) Lys1 labeling site by KiNativ Profiling analysis

{"Smiles entry": "CCN1CCN(Cc2ccc(NC(=O)c3ccc(C)c(/C=C/c4cnc5[nH]ccc5c4OC)c3)cc2C(F)(F)F)CC1", "IC50 [nM]": 29.5}
{"Smiles entry": "CCN1CCN(Cc2ccc(NC(=O)c3ccc(C)c(Oc4ccnc5[nH]ccc45)c3)cc2C(F)(F)F)CC1", "IC50 [nM]": 12.9}

====

// reported inhibition per item
Molecular target: UniProtKB P00519
Assay: Inhibition of ABL ACT labeling site in human Huh-7 cell lysate at 1 uM by KiNativ Profiling analysis relative to control
Format: subcellular
Parameter measured: inhibition (%)

{"Smiles entry": "CCN1CCN(Cc2ccc(NC(=O)c3cccc(Oc4ccnc5[nH]ccc45)c3)cc2C(F)(F)F)CC1", "Target system": "UniProtKB P00519", "Parameter measured": "inhibition", "Readout unit": "%", "Modifier": ">", "Reported": 96}
{"Smiles entry": "COc1c(CCc2cc(C(=O)Nc3cc(-n4cnc(C)c4)cc(C(F)(F)F)c3)ccc2C)cnc2[nH]ccc12", "Target system": "UniProtKB P00519", "Parameter measured": "inhibition", "Readout unit": "%", "Modifier": "=", "Reported": 92.2}
{"Smiles entry": "CCN1CCN(Cc2ccc(NC(=O)c3ccc(C)c(Oc4ncnc5[nH]ccc45)c3)cc2C(F)(F)F)CC1", "Target system": "UniProtKB P00519", "Parameter measured": "inhibition", "Readout unit": "%", "Modifier": "=", "Reported": 74.2}
{"Smiles entry": "CCN1CCN(Cc2ccc(NC(=O)c3cccc(CCc4cnc5[nH]ccc5c4OC)c3)cc2C(F)(F)F)CC1", "Target system": "UniProtKB P00519", "Parameter measured": "inhibition", "Readout unit": "%", "Modifier": "=", "Reported": 66.4}
